For each entry below, report its PDGF Kinase %Inhibition value.
system-under-test: PDGF-R (Homo sapiens)
Sequence (P09619 33-1106, species assumed): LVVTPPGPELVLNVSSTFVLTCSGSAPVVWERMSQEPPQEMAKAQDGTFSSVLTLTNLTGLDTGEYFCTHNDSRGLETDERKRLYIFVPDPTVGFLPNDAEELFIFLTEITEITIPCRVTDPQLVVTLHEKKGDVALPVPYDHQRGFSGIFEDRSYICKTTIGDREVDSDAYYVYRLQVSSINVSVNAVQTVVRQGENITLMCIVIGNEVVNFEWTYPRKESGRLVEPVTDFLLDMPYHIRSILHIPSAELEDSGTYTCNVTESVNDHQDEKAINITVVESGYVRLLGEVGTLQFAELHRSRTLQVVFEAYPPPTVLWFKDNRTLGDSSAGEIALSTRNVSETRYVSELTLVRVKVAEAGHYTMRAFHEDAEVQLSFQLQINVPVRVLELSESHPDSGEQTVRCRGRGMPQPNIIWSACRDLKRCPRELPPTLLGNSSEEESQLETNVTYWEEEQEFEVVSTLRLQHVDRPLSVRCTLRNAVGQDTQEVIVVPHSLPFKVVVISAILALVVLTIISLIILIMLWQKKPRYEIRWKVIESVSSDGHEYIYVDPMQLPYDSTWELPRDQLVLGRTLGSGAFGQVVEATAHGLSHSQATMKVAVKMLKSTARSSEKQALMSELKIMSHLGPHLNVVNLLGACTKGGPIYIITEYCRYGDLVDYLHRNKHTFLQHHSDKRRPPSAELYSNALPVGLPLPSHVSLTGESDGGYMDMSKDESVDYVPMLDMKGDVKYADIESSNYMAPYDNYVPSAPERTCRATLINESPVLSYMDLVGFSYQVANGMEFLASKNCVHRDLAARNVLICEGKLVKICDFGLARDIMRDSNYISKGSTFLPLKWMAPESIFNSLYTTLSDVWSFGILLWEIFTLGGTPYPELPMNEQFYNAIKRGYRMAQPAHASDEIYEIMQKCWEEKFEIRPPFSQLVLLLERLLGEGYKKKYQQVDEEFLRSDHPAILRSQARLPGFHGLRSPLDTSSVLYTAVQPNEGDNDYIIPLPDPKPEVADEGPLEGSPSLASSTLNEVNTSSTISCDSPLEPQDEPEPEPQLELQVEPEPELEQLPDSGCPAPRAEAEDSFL
assay-method-text: PDGF-R ELISA
Assay type: cell-based
The reply should contain only the number, in %.

Enquiry: Complete the entry with PDGF Kinase %Inhibition for Cc1c(Br)ccc2c1C(=Cc1coc3ccc(Cl)cc3c1=O)C(=O)N2 [10730/C06]
Return: 7.6

Enquiry: Determine from records and report PDGF Kinase %Inhibition for COc1c(C(C)C)cc(C=C2C(=O)Nc3ccc(S(=O)(=O)N4CCOCC4)cc32)cc1C(C)C [10732/F03]
Return: 51.8

Enquiry: Let me know recorded PDGF Kinase %Inhibition for Cc1c(Br)ccc2c1C(=Cc1ccc(O)cc1O)C(=O)N2 [10723/C08] , thanks.
Return: 29.0

Enquiry: Consider the compound O=C1Nc2ccc(I)cc2C1=CC(c1cccs1)C(F)(F)F (stereo not drawn) [10732/B02] and give its recorded PDGF Kinase %Inhibition.
Return: 23.5

Enquiry: Given O=C1Nc2ccc(I)cc2C1=Cc1ccccn1 [10729/B07] , respond with its PDGF Kinase %Inhibition.
Return: -33.2

Enquiry: Give reported PDGF Kinase %Inhibition value for Cc1ccsc1C=C1C(=O)Nc2ccc(S(=O)(=O)Nc3ccc(C(F)(F)F)cc3)cc21 [10729/E05]
Return: 29.9

Enquiry: Given O=C1Nc2ccc(CCCl)cc2C1=Cc1ccc([N+](=O)[O-])s1 [10722/G04] , respond with its PDGF Kinase %Inhibition.
Return: 11.7

Enquiry: Hello, please tell me recorded PDGF Kinase %Inhibition for this one: O=C1Nc2ccc(I)cc2C1=Cc1ccc(N2CCOCC2)cc1 [10725/B08]
Return: 29.4

Enquiry: Assign PDGF Kinase %Inhibition to the following record: CNS(=O)(=O)c1ccc2c(c1)C(=Cc1ccc(C)o1)C(=O)N2 [10725/D04]
Return: 12.2

* * *

Provide the reported Fik Kinase %Inhibition of each item.
system-under-test: FLK-1 receptor (Mus musculus, UniProt P35918)
Construct: expressed in transfected cells; host or cells: NIH3T3 C7#3
Sequence (P35918 20-1345): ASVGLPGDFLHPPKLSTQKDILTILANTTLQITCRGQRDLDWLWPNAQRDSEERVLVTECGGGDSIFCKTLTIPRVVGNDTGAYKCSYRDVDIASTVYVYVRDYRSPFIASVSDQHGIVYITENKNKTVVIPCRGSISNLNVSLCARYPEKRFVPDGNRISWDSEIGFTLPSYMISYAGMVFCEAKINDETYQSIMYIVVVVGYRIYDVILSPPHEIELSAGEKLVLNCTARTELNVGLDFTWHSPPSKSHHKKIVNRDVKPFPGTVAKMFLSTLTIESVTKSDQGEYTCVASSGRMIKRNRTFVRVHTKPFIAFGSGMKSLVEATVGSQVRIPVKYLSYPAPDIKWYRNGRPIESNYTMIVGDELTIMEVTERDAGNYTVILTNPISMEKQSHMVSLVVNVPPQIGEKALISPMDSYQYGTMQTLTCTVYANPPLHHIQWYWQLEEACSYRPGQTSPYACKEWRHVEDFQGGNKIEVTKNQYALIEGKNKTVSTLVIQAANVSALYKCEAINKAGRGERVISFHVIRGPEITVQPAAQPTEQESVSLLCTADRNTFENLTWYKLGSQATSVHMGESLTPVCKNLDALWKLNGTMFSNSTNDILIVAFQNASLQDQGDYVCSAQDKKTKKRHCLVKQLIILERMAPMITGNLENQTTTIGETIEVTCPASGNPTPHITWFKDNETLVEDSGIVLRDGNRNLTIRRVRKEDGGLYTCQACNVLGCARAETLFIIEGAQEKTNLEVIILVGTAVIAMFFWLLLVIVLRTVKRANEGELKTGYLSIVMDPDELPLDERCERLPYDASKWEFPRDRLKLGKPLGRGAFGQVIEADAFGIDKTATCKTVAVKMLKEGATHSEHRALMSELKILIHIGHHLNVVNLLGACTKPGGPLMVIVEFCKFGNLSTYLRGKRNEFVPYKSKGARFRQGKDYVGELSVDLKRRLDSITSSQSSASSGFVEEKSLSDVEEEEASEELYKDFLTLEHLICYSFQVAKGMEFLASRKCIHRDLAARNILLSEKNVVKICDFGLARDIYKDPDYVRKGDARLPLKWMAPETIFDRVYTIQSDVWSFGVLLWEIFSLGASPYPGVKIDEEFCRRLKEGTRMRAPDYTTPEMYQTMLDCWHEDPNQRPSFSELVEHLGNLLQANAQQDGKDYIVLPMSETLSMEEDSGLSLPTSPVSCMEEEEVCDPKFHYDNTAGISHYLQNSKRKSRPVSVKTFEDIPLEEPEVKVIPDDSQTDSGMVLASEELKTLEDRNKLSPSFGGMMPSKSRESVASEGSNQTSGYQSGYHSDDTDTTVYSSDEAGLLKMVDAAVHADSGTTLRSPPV
assay-method-text: FLK-1 ELISA (kinase activity of the FLK-1 receptor in FLK-1/NIH3T3 cells, VEGF stimulated)
Type: cell-based
Output spec: scalar in %, unitless text.

Enquiry: Give the reported value of Fik Kinase %Inhibition for this record: O=C1Nc2c(Br)cc(Br)cc2C1=Cc1ccc(O)c(Br)c1
Return: -7.9

Enquiry: Note Fik Kinase %Inhibition for the compound shown: CNS(=O)(=O)c1ccc2c(c1)C(=Cc1cc(C)n[nH]1)C(=O)N2
Return: 2.3

Enquiry: Answer with reported Fik Kinase %Inhibition of CCCCN(CCCC)c1ccc(C=C2C(=O)Nc3ccc(S(=O)(=O)Nc4ccc(C(F)(F)F)cc4)cc32)cc1
Return: 3.1

Enquiry: Tell us which Fik Kinase %Inhibition value is on record for O=C1Nc2ccc(CCCl)cc2C1=Cc1ccccc1Br
Return: 14.2

Enquiry: Using the record for CNS(=O)(=O)c1ccc2c(c1)C(=Cc1cc3c([nH]1)CCCC3)C(=O)N2 , state its measured Fik Kinase %Inhibition.
Return: -25.1

Enquiry: Tell me its Fik Kinase %Inhibition given CCOc1ccc(C=C2C(=O)Nc3c(Br)cc(Br)cc32)cc1OC as the entry.
Return: 21.4

Enquiry: For the compound CC(C)(C)c1cc(C=C2C(=O)Nc3ccc(CCCl)cc32)cc(Br)c1OCc1ccccc1 , give its measured Fik Kinase %Inhibition value.
Return: 10.0

Enquiry: Tell me Fik Kinase %Inhibition reported for CCN(CC)c1ccc(C=C2C(=O)Nc3ccc(S(=O)(=O)Nc4ccc(C(F)(F)F)cc4)cc32)c(O)c1
Return: 10.6

Enquiry: Given CCOC(=O)c1cc(C=C2C(=O)Nc3ccc(I)cc32)oc1C , respond with its Fik Kinase %Inhibition.
Return: 16.5

Enquiry: Report Fik Kinase %Inhibition, nothing else, for this compound: CC(C)(C)c1cc(C=C2C(=O)Nc3c(Br)cc(Br)cc32)cc(C(C)(C)C)c1O
Return: 4.8

Enquiry: Look up Fik Kinase %Inhibition of CSc1ccc(C=C2C(=O)Nc3ccc(I)cc32)cc1 and report it.
Return: 0.1

Enquiry: Look up Fik Kinase %Inhibition of O=C1Nc2c(Br)cc(Br)cc2C1=Cc1ccccc1O and report it.
Return: 8.0

Enquiry: Given the compound CNS(=O)(=O)c1ccc2c(c1)C(=Cc1cc(I)c(OC)c(C(C)(C)C)c1)C(=O)N2 , write its reported Fik Kinase %Inhibition.
Return: 18.8

Enquiry: Supply measured Fik Kinase %Inhibition of CCOc1cc(C=C2C(=O)Nc3ccc(CCCl)cc32)ccc1O in your reply.
Return: 2.1

Enquiry: Determine its reported Fik Kinase %Inhibition: O=C1Nc2ccc(S(=O)(=O)Nc3ccc(C(F)(F)F)cc3)cc2C1=Cc1ccc(Br)cc1
Return: 13.2

Enquiry: Indicate the recorded Fik Kinase %Inhibition value for this compound: Cc1c(Br)ccc2c1C(=Cc1cccc(C(F)(F)F)c1F)C(=O)N2
Return: -7.2

Enquiry: Name the recorded Fik Kinase %Inhibition of the compound listed here: COc1ccc(C=C2C(=O)Nc3c(Br)cc(Br)cc32)cc1C(C)(C)C
Return: -3.9

Enquiry: Give me measured Fik Kinase %Inhibition, please, for this compound: Cc1csc2sc(C=C3C(=O)Nc4ccc(CCCl)cc43)c(C)c12
Return: 6.8

* * *

Tested on: MET
assay-method-text: MET biochemical kinase assay
Design: species or system human; concentration or dose not given beside the values
Use yes (1) when the recorded Met Kinase % Inhibition is no lower than 60%; use no (0) when it is lower.

Enquiry: Decide: Met Kinase % Inhibition of Cc1c(Br)ccc2c1C(=Cc1cccn1C)C(=O)N2 [10717/C04] >= 60%?
Return: no (0)

Enquiry: Tell me whether Met Kinase % Inhibition is at least 60% here: O=C1Nc2ccc(CCCl)cc2C1=Cc1cc2ccccc2o1 [10724/G07]
Return: no (0)

Enquiry: Form field: Met Kinase % Inhibition at least 60%? Entry: O=C1Nc2ccc(CCCl)cc2C1=CC(c1cccs1)C(F)(F)F (stereo not shown) [10732/G02]
Return: no (0)

Enquiry: hey, is Met Kinase % Inhibition for this one >= 60%? O=C1Nc2ccc(S(=O)(=O)N3CCOCC3)cc2C1=Cc1cccc([N+](=O)[O-])c1 [10719/F10]
Return: no (0)

Enquiry: Check this compound for Met Kinase % Inhibition at or above 60%: O=C1Nc2ccc(S(=O)(=O)Nc3ccc(C(F)(F)F)cc3)cc2C1=Cc1ccc(F)cc1Cl [10719/E09]
Return: no (0)

Enquiry: Decide: Met Kinase % Inhibition of CCOc1ccccc1C=C1C(=O)Nc2ccc(CCCl)cc21 [10717/G02] >= 60%?
Return: no (0)

Enquiry: Quick check, Met Kinase % Inhibition >= 60%? O=C1Nc2ccc(I)cc2C1=Cc1ccc([N+](=O)[O-])cc1 [10734/B06]
Return: yes (1)

Enquiry: Item O=C1Nc2ccc(CCCl)cc2C1=Cc1cccnc1 [10729/G08] with Met Kinase % Inhibition of 60% or above?
Return: no (0)

Enquiry: Check this compound for Met Kinase % Inhibition at or above 60%: COc1ccc(O)c(C=C2C(=O)Nc3ccc(I)cc32)c1 [10720/B10]
Return: no (0)

Enquiry: Assess whether reported Met Kinase % Inhibition for O=C1Nc2c(Br)cc(Br)cc2C1=Cc1ccc(C(=O)O)cc1 [10722/A05] sits at 60% or higher.
Return: yes (1)

Enquiry: Textbook exercise: given the entry COc1cccc(O)c1C=C1C(=O)Nc2ccc(S(=O)(=O)N3CCOCC3)cc21 [10717/F10] , state whether its Met Kinase % Inhibition is greater than or equal to 60%.
Return: no (0)

Enquiry: Evaluate CNS(=O)(=O)c1ccc2c(c1)C(=Cc1cc3c([nH]1)CCCC3)C(=O)N2 [10721/D05] : Met Kinase % Inhibition at minimum 60%?
Return: yes (1)

Enquiry: Kindly determine if Met Kinase % Inhibition recorded for CCOc1cccc(C=C2C(=O)Nc3ccc(Br)c(C)c32)c1O [10734/C02] is above or exactly 60%.
Return: yes (1)

Enquiry: Could you tell me if the measured Met Kinase % Inhibition of O=C1Nc2ccc(CCCl)cc2C1=CC1C=CCCC1 (stereo not shown) [10729/G11] reaches 60% or more?
Return: no (0)

Enquiry: Say whether COc1ccc(C=C2C(=O)Nc3ccc(S(=O)(=O)Nc4ccc(C(F)(F)F)cc4)cc32)cc1 [10726/E11] shows Met Kinase % Inhibition of 60% or more.
Return: no (0)

Enquiry: Form field: Met Kinase % Inhibition at least 60%? Entry: CNS(=O)(=O)c1ccc2c(c1)C(=Cc1c[nH]cn1)C(=O)N2 [10725/D11]
Return: yes (1)

Enquiry: Check if Met Kinase % Inhibition >= 60% (inclusive). Item: CNS(=O)(=O)c1ccc2c(c1)C(=Cc1cc(OC)c(OC)c(OC)c1)C(=O)N2 [10730/D04]
Return: no (0)

Enquiry: Dear colleague, could you confirm whether O=C1Nc2ccc(I)cc2C1=Cc1c[nH]c2ccccc12 [10717/B06] has Met Kinase % Inhibition at or above 60%?
Return: yes (1)
